Protein target, amino acids: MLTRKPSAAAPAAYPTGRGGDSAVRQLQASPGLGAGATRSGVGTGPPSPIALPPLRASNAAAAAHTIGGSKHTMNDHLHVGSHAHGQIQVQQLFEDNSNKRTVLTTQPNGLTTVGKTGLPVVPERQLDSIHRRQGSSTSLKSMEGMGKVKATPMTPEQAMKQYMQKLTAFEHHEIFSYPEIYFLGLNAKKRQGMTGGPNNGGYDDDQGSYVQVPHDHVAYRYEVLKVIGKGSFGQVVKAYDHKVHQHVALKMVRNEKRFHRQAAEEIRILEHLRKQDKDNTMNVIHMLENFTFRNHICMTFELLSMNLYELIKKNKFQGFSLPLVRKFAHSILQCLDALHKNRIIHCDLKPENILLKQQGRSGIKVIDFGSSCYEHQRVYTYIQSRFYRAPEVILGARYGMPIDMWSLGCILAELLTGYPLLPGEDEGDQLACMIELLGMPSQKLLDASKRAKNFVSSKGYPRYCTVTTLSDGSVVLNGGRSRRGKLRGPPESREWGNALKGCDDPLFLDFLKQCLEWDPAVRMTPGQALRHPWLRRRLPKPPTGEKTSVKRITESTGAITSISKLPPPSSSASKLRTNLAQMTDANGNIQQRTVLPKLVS
pIC50: −log10 of the molar value.
Collected pIC50 values appear next to each entry.
measured.attribute: pIC50

{"columns": ["molecular.string", "modifier.sign", "observed.result"],
 "data": [
  ["Cn1cnc2cc(/C=C3\\N=C(NC45CC6CC(CC(C6)C4)C5)NC3=O)ccc21", "<", 5.00],
  ["COC[C@@H](NC1=N/C(=C\\c2ccc3ncsc3c2)C(=O)N1)c1ccccc1", "=", 6.59],
  ["O=C1NC(NC2COC2)=N/C1=C\\c1ccc2ncsc2c1", "=", 6.24],
  ["O=C1NC(NCC23CC4CC(CC(C4)C2)C3)=N/C1=C\\c1ccc2ncsc2c1", "<", 5.00],
  ["Cn1cnc2ccc(/C=C3\\N=C(NC45CC6CC(CC(C6)C4)C5)NC3=O)cc21", "=", 7.02]
]}
